Tested on: MDA-MB-468 breast
test summary: NCI tumour cell line growth inhibition, 48 h
measured endpoint: TGI (µM)
Answers are plain numbers, in µM.

Worked cases, answers included:
{"molecule": "COc1ccc([C@H](CC(=O)O)N2CCN(CCCc3ccc4c(n3)NCCC4)C2=O)cn1", "measured on": "MDA-MB-468 breast", "recorded measurement": 0.479}
{"molecule": "Cc1ccc(C2CC(c3ccc(NC(=O)Nc4ccccc4)cc3)=NN2c2ccc(S(N)(=O)=O)cc2)cc1 (stereo not given)", "measured on": "MDA-MB-468 breast", "recorded measurement": 24}

Now examine the next entry.
// sample CC(=C(c1ccc(OCCN2CCCCCC2)cc1)c1ccc(OCCN2CCCCCC2)cc1)c1ccc(Cl)cc1 , its TGI was 6.08
